Below, each of the compounds is paired with its reported nuclei count value.
Assay: endothelial E-selectin expression blockers – imaging, HUVEC, immunofluorescence, MLSMR starter and 10KST1 sets, primary screen (AID 487);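 note: 100% = median nuclei count of all wells on the same plate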
Settings: HUVEC TNFalpha-induced E-selectin immunofluorescence imaging, at 2 µM; measured here: cell number, toxicity

{"compound": "CCSCCNC(=O)c1cc(-n2cnnc2)ccc1Cl", "nuclei count (%)": 89.9}
{"compound": "Cc1cccc2c1nc(-c1ccccc1)n1cnnc21", "nuclei count (%)": 114}
{"compound": "Cn1nnnc1SCC(=O)NC1CCCCC1", "nuclei count (%)": 79.2}
{"compound": "O=C(c1ccc(COc2c(F)c(F)c(F)c(F)c2F)o1)N1CCOCC1", "nuclei count (%)": 105}
{"compound": "N#Cc1c(-c2ccccc2)nc(N2CCCCCC2)[nH]c1=O", "nuclei count (%)": 116}
{"compound": "Cn1c(=O)c(=O)n(C)c2cc(S(=O)(=O)CCC(=O)N3CCOCC3)ccc21", "nuclei count (%)": 113}
{"compound": "Cn1c(C(=O)NCCCN2CCCCCC2)cc2c(=O)n(C)c3ccccc3c21", "nuclei count (%)": 101}
{"compound": "CCN1CCN(C(c2ccc(F)cc2)c2nnnn2Cc2cccs2)CC1 (configuration not stated)", "nuclei count (%)": 96.1}
{"compound": "C=CCn1c(SCC(=O)NCCCC)nc2scc(-c3ccco3)c2c1=O", "nuclei count (%)": 99.8}
{"compound": "Cc1cccc(CC2CC(=O)N(c3ccccc3)C2=O)c1 (configuration not stated)", "nuclei count (%)": 102}
{"compound": "C=C(C)c1cccc(C(C)(C)NC(=O)NCC2CCCO2)c1 (configuration not stated)", "nuclei count (%)": 113}
{"compound": "O=C(Nc1ccc2snnc2c1)N1CCSCC1", "nuclei count (%)": 106}
{"compound": "CCn1c(=O)c2cc(S(=O)(=O)NCc3ccccc3)ccc2n(CC)c1=O", "nuclei count (%)": 126}
{"compound": "CC(C)CCN1CC(C(=O)NCc2ccccc2)CC1=O (configuration not stated)", "nuclei count (%)": 108}
{"compound": "CCOc1ccc(-c2nnc(N)s2)cc1", "nuclei count (%)": 90.5}
{"compound": "CCN(CCNC(=O)CS(=O)(=O)Cc1nc(-c2cccc(OC)c2)oc1C)c1ccccc1", "nuclei count (%)": 107}
{"compound": "COc1ccc2cc(CN(CCO)C(=O)c3ccccc3F)c(=O)[nH]c2c1", "nuclei count (%)": 110}
{"compound": "COc1ccc(OC)c(-c2nnc(SCC(=O)NC3CCCCC3)o2)c1", "nuclei count (%)": 114}
{"compound": "O=C(Nc1nnc(CCN2CCCCC2)s1)C1CCCCC1", "nuclei count (%)": 102}
{"compound": "Cc1ccc(OCCC(=O)OCC(=O)C(C)(C)C)cc1", "nuclei count (%)": 131}
{"compound": "Cc1cc(C(=O)NCCCc2ccccc2)no1", "nuclei count (%)": 120}
{"compound": "C=CCSC1=C(C#N)C(c2ccccc2C)CC(=O)N1 (configuration not stated)", "nuclei count (%)": 174}
{"compound": "CC(=O)NS(=O)(=O)c1ccc(NC(=O)c2ccccc2F)cc1", "nuclei count (%)": 90.8}
{"compound": "CCN(CC)C(=O)c1ccc(CS(=O)(=O)c2ccc(OC)cc2)o1", "nuclei count (%)": 125}
{"compound": "S=c1[nH]nc(Cc2ccccc2)n1-c1ccccc1", "nuclei count (%)": 106}
{"compound": "[O-][n+]1c2ccc3nonc3c2nn1-c1ccccc1Cl", "nuclei count (%)": 118}
{"compound": "O=c1c2ccccc2nc(SCc2nnc(-c3ccccc3Br)o2)n1-c1ccccc1", "nuclei count (%)": 104}
{"compound": "O=C(Nc1ccccc1)c1cnc2n(c1=O)CCS2", "nuclei count (%)": 121}
{"compound": "CN(C)/C=N/c1ncnc2c1cnn2-c1ccc(C(F)(F)F)cn1", "nuclei count (%)": 114}
{"compound": "O=C(c1ncn[nH]1)N1CCN(c2nc(-c3ccccc3)cs2)CC1", "nuclei count (%)": 111}
{"compound": "Cc1ccc2cc(C#N)c(NCCCNC(=O)C3CCCO3)nc2c1 (configuration not stated)", "nuclei count (%)": 116}
{"compound": "COc1ccc(OC)c(NC(=O)CCNS(=O)(=O)c2cccs2)c1", "nuclei count (%)": 91.1}
{"compound": "CC(=O)N(CCN(C(C)=O)c1ccccc1)c1ccccc1", "nuclei count (%)": 88.5}
{"compound": "COC(=O)c1cccc(Oc2nc3c(c(=O)n(C)c(=O)n3C)n2C(C)C)c1", "nuclei count (%)": 106}
{"compound": "CCCC(NC(=O)c1ccccc1)c1nc2ccccc2n1Cc1ccc(C(=O)OC)o1 (configuration not stated)", "nuclei count (%)": 119}
{"compound": "Clc1ccc(OCc2nc(-c3ccccn3)no2)c(Br)c1", "nuclei count (%)": 121}
{"compound": "COc1ccc(CCNc2oc(COc3ccccc3Cl)nc2C#N)cc1OC", "nuclei count (%)": 109}
{"compound": "CSc1ccc(S(=O)(=O)Nc2cccc(F)c2)cc1", "nuclei count (%)": 96.9}
{"compound": "O=S(=O)(Nc1ncccn1)c1ccc(Nc2ncnc3ccccc23)cc1", "nuclei count (%)": 105}
{"compound": "CCOC(=O)c1ccc(NC(=O)Cn2cc3c(n2)CCC(C)C3)cc1 (configuration not stated)", "nuclei count (%)": 101}
{"compound": "COc1ccccc1C(=O)NCCNC(=O)c1ccco1", "nuclei count (%)": 113}
{"compound": "CC(C)(C)n1nnnc1CN1CCC(NC(=O)NC2CCCCC2)CC1", "nuclei count (%)": 115}
{"compound": "COc1cc(C(=O)Nc2nc(-c3cccs3)cs2)cc(OC)c1OC", "nuclei count (%)": 106}
{"compound": "O=c1[nH]c(SCc2ccccc2Cl)nc2c1CCCC2", "nuclei count (%)": 111}
{"compound": "CCOC(=O)C1CCCN(C(=O)c2sc3nc(-c4ccccc4)cn3c2C)C1 (configuration not stated)", "nuclei count (%)": 76.5}
{"compound": "Cc1c(Cl)cccc1N1C(=O)c2ccccc2C1=O", "nuclei count (%)": 93.5}
{"compound": "CC1CCN(CCc2nc3cc(NS(=O)(=O)c4ccc(F)cc4)ccc3n2C)CC1", "nuclei count (%)": 106}
